target-of-assay: Sigma non-opioid intracellular receptor 1 (Rattus norvegicus, UniProt Q9R0C9)
Sequence (Q9R0C9 whole entry): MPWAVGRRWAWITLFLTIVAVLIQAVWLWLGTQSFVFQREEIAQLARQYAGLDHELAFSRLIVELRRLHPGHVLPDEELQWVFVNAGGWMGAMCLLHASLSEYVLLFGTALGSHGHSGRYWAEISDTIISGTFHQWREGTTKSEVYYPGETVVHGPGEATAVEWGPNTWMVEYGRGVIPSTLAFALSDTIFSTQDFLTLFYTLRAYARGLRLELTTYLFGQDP
run-description: Inhibition of [3H]pentazocine binding to Opioid receptor sigma 1
pIC50: −log10 of the molar value.
Each item that follows carries a reported pIC50.
measurement-name: pIC50

>>> measured_value("COc1ccc(CN[C@@H](C)C(N)=O)cc1")
"< 5.00"
>>> measured_value("C[C@H](NCc1ccc(OCCCCCc2ccccc2)cc1)C(N)=O")
"< 5.00"
>>> measured_value("Nc1nnc(-c2cccc(Cl)c2Cl)c(N)n1")
"< 5.00"
